- tgt: Free fatty acid receptor 1 (Homo sapiens, UniProt O14842)
- Sequence (O14842 whole entry): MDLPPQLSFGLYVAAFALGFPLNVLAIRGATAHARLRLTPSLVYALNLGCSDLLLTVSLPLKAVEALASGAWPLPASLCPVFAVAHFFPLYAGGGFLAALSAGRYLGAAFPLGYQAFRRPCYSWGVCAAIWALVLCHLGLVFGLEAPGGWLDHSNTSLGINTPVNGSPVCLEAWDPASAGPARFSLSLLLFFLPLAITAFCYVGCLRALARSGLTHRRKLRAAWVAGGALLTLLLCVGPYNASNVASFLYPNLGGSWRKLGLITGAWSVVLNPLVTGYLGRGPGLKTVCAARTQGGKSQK
- assay notes: Agonist activity at N-terminal FLAG tagged human FFAR1 transfected in African green monkey COS-7 cells assessed as accumulation of inositol phosphate incubated for 90 mins by TopCount NXT counter based analysis
metric: EC50 (nM)
Give bare numbers, in nM.

Example results:
[
  {
    "molecule": "Cc1ccc(Nc2nc(N)nc(COc3cccc(N4CCCS4(=O)=O)c3)n2)cc1Cl",
    "metric": "EC50",
    "reported": 9700
  },
  {
    "molecule": "Cc1cc(=O)oc2cc(OCc3nc(N)nc(Nc4cccc(Cl)c4)n3)ccc12",
    "metric": "EC50",
    "reported": 1110
  },
  {
    "molecule": "Cc1ccc(Nc2nc(N)nc(COc3cccc(N4CCCC4=O)c3C)n2)cc1Cl",
    "metric": "EC50",
    "reported": 11100
  },
  {
    "molecule": "Cc1cc(OCc2nc(N)nc(NCC(c3cccc(Cl)c3)N3CCCC3)n2)cc(N2CCCC2=O)c1 (stereo not given)",
    "metric": "EC50",
    "reported": 610
  }
]

# evaluate next
If you can, please state the reported EC50 value of Cc1cc(OCc2nc(N)nc(NCCc3cccc(OC(F)F)c3)n2)cc(N2CCCC2=O)c1 .
5

###

- assay notes: Solubility of the compound in PBS buffer at pH 7.4
- Type: physicochemical
Classify by measured solubility kinetic: True if it is equal to or exceeds 20 µM, False if it is smaller.

[
  {
    "molecule": "Cc1cc(OCc2nc(N)nc(NCCC3CCCCC3(F)F)n2)cc(N2CCCC2=O)c1 (configuration not stated)",
    "group": "True"
  }
]

Entry Cc1cc(OCc2nc(N)nc(NCCc3ccccc3N3CCOCC3)n2)cc(N2CCCC2=O)c1 : is its solubility kinetic no less than 20 µM?
True

Entry COC(CNc1nc(N)nc(COc2cc(C)cc(N3CCCC3=O)c2)n1)c1cccc(Cl)c1 (configuration not stated) : is its solubility kinetic no less than 20 µM?
True

Entry Cc1cc(OCc2nc(N)nc(NCCc3cc(Cl)ccc3Cl)n2)cc(N2CCCC2=O)c1 : is its solubility kinetic no less than 20 µM?
False

Entry Cc1cc(OCc2nc(N)nc(NCC(C)c3cccc(Cl)c3)n2)cc(N2CCCC2=O)c1 (configuration not stated) : is its solubility kinetic no less than 20 µM?
False

Entry Cc1cc(OCc2nc(N)nc(NCCc3cccc(Cl)c3)n2)cc(N2CCCC2=O)c1 : is its solubility kinetic no less than 20 µM?
False

Entry Cc1cc(OCc2nc(N)nc(NC3(Cc4cccc(Cl)c4)CC3)n2)cc(N2CCCC2=O)c1 : is its solubility kinetic no less than 20 µM?
True

###

- tgt: Free fatty acid receptor 4 (Homo sapiens)
- Sequence (Q5NUL3 whole entry): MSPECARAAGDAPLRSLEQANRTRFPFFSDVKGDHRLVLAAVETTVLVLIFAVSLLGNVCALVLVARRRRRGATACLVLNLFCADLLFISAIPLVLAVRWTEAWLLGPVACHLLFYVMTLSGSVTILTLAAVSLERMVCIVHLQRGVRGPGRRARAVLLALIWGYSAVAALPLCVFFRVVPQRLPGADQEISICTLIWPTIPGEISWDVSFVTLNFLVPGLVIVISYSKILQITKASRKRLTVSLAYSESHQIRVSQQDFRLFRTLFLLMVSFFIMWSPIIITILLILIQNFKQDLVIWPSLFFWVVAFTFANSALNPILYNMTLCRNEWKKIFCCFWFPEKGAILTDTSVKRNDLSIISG
- assay notes: Agonist activity at N-terminal FLAG tagged human FFAR4 transfected in African green monkey COS-7 cells assessed as accumulation of inositol phosphate incubated for 90 mins by TopCount NXT counter based analysis
metric: EC50 (nM)
Answers are plain numbers, in nM.

Example results:
[
  {
    "compound": "Cc1ccc(Nc2nc(N)nc(COc3ccc4c(C)cc(=O)oc4c3)n2)cc1",
    "endpoint unit": "nM",
    "EC50": 1210
  },
  {
    "compound": "Cc1ccc(Nc2nc(N)nc(COc3cc(N4CCCC4=O)ccc3C)n2)cc1Cl",
    "endpoint unit": "nM",
    "EC50": 18200
  },
  {
    "compound": "Cc1cc(OCc2nc(N)nc(NCCc3cccc(OC(F)F)c3)n2)cc(N2CCCC2=O)c1",
    "endpoint unit": "nM",
    "EC50": 10
  }
]

Record EC50 per entry; entries follow.
1. Cc1cc(Nc2nc(N)nc(COc3ccc4c(C)cc(=O)oc4c3)n2)ccc1Cl
2. Cc1ccc(Nc2nc(N)nc(COc3cc(F)cc(N4CCCC4=O)c3)n2)cc1Cl
3. Cc1ccc(Nc2nc(N)nc(COc3cc(N4CCCC4=O)ccc3F)n2)cc1Cl
4. Cc1cc(OCc2nc(N)nc(NCCc3cccc(Cl)c3Cl)n2)cc(N2CCCC2=O)c1
5. Cc1cc(OCc2nc(N)nc(NCCc3cc(Cl)cc(Cl)c3)n2)cc(N2CCCC2=O)c1

600
1200
13800
9
7

Record EC50 per entry; entries follow.
1. Cc1cc(=O)oc2cc(OCc3nc(N)nc(Nc4ccc(C(C)C)cc4)n3)ccc12
2. CCc1cc(=O)oc2cc(OCc3nc(N)nc(Nc4ccc(C)cc4)n3)ccc12
3. CCc1ccc(Nc2nc(N)nc(COc3ccc4c(C)cc(=O)oc4c3)n2)cc1Cl
4. COc1ccc(Cl)cc1CCNc1nc(N)nc(COc2cc(C)cc(N3CCCC3=O)c2)n1
5. Cc1ccc(Nc2nc(N)nc(COc3ccc4c(C)cc(=O)oc4c3)n2)cc1Cl
6. Cc1cc(OCc2nc(N)nc(NCCc3ccccc3N3CCOCC3)n2)cc(N2CCCC2=O)c1
7. Cc1ccc(Nc2nc(N)nc(COc3cc(Cl)cc(N4CCCC4=O)c3)n2)cc1Cl

1200
1320
560
53
150
81
150

Record EC50 per entry; entries follow.
1. Cc1cc(OCc2nc(N)nc(NCC(C)c3cccc(Cl)c3)n2)cc(N2CCCC2=O)c1 (stereo not given)
2. Cc1ccc(Nc2nc(N)nc(COc3cccc(N4CCCC4=O)c3)n2)cc1Cl

1. 10
2. 590

###

- tgt: UniProt Q5NUL3
- assay notes: Agonist activity at N-terminal FLAG tagged human FFAR4 transfected in African green monkey COS-7 cells assessed as accumulation of inositol phosphate at 10 uM incubated for 90 mins by TopCount NXT counter based analysis relative to control
- Assay type: cell-based
metric: Emax (%)
One number for each entry, in %.

Example results:
[
  {
    "smiles text": "Cc1cc(OCc2nc(N)nc(NCCc3ccccc3C(F)(F)F)n2)cc(N2CCCC2=O)c1",
    "Emax / %": 38
  },
  {
    "smiles text": "Cc1cc(OCc2nc(N)nc(NCCc3ccc(Cl)c(C)c3)n2)cc(N2CCCC2=O)c1",
    "Emax / %": 30
  },
  {
    "smiles text": "COc1ccc(CCNc2nc(N)nc(COc3cc(C)cc(N4CCCC4=O)c3)n2)cc1",
    "Emax / %": 34
  },
  {
    "smiles text": "Cc1ccc(Nc2nc(N)nc(COc3cc(N4CCCC4=O)ccc3F)n2)cc1Cl",
    "Emax / %": 27
  }
]

# evaluate next
For the record Cc1cc(OCc2nc(N)nc(NCCc3cc(Cl)ccc3Cl)n2)cc(N2CCCC2=O)c1 , what value of Emax is listed for UniProt Q5NUL3?
30

###

Answer each item with its documented pEC50.
- tgt: Free fatty acid receptor 4 (Homo sapiens)
- assay notes: Agonist activity at N-terminal FLAG tagged human FFAR4 transfected in African green monkey COS-7 cells assessed as accumulation of inositol phosphate incubated for 90 mins by TopCount NXT counter based analysis
Answers are plain numbers, as −log10 of the molar value.

Example results:
[
  {
    "compound": "Cc1cc(OCc2nc(N)nc(NCCc3c(C)cccc3C)n2)cc(N2CCCC2=O)c1",
    "tgt": "Free fatty acid receptor 4 (Homo sapiens)",
    "pEC50": 7.14
  },
  {
    "compound": "Cc1cc(OCc2nc(N)nc(NCCc3cccc(C(F)(F)F)c3)n2)cc(N2CCCC2=O)c1",
    "tgt": "Free fatty acid receptor 4 (Homo sapiens)",
    "pEC50": 8.00
  },
  {
    "compound": "COC(CNc1nc(N)nc(COc2cc(C)cc(N3CCCC3=O)c2)n1)c1cccc(Cl)c1 (configuration not stated)",
    "tgt": "Free fatty acid receptor 4 (Homo sapiens)",
    "pEC50": 7.92
  },
  {
    "compound": "Cc1cc(OCc2nc(N)nc(NCCc3ccc(Cl)cc3Cl)n2)cc(N2CCCC2=O)c1",
    "tgt": "Free fatty acid receptor 4 (Homo sapiens)",
    "pEC50": 7.60
  },
  {
    "compound": "Cc1cc(OCc2nc(N)nc(NCCc3cc(C)ccc3F)n2)cc(N2CCCC2=O)c1",
    "tgt": "Free fatty acid receptor 4 (Homo sapiens)",
    "pEC50": 6.41
  },
  {
    "compound": "Cc1ccc(Nc2nc(N)nc(COc3cc(OC(F)(F)F)cc(N4CCCC4=O)c3)n2)cc1Cl",
    "tgt": "Free fatty acid receptor 4 (Homo sapiens)",
    "pEC50": 5.66
  }
]

If you can, please state the reported pEC50 value of Cc1cc(OCc2nc(N)nc(NCCc3ccccc3OC(F)(F)F)n2)cc(N2CCCC2=O)c1 .
7.43
